Reference for the values: the supplement of paper PMC10567573

B1: VAMP4 (parent)
chain: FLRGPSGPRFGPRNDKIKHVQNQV

Variants of: B1
Test: protein stability index of a GFP-peptide fusion (GPS, HEK-293T) (PSI 1-6); higher = more stable;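 further: lentivirally expressed fusions sorted by FACS into six bins by GFP to DsRed ratio, PSI derived from sequencing read proportions per bin multiplied by bin number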
Details: c terminus: a fixed tail appended
What protein stability index was measured for each of the following?
Reply: number alone, nothing else.

Entry under review: `V24A` . Reported protein stability index?
2.85

Entry under review: `V24E` . Reported protein stability index?
2.89

Entry under review: `I17D` . Reported protein stability index?
3.57

Entry under review: `G4Q` . Reported protein stability index?
3.2

Entry under review: `R3C` . Reported protein stability index?
2.77
